assay: Oral bioavailability in Sprague-Dawley rat at 25 mg/kg administered through MC/TW formulation; type: ADME, organism-based; settings: in vivo
property.measured: bioavailability (%)

[
  {
    "molecule": "O=C(O)c1ccc(OCCc2c(CCNS(=O)(=O)c3c(F)cccc3C(F)(F)F)n(C(c3ccccc3)c3ccccc3)c3ccc(Cl)cc23)cc1",
    "unit.text": "%",
    "bioavailability": 3
  },
  {
    "molecule": "O=C(O)c1ccc(CCCc2c(CCNS(=O)(=O)Cc3ccc(Cl)c(Cl)c3)n(C(c3ccccc3)c3ccccc3)c3ccc(Cl)cc23)cc1 [EFIPLADIB]",
    "unit.text": "%",
    "bioavailability": 1
  },
  {
    "molecule": "O=C(O)c1ccc(OCCc2c(CCNS(=O)(=O)Cc3ccccc3)n(C(c3ccccc3)c3ccccc3)c3ccc(Cl)cc23)cc1",
    "unit.text": "%",
    "bioavailability": 3.9
  }
]

[P] O=C(O)c1ccc(CCCc2c(CCNS(=O)(=O)c3c(Cl)cccc3Cl)n(C(c3ccccc3)c3ccccc3)c3ccc(Cl)cc23)cc1
[Q] Cc1ccccc1S(=O)(=O)NCCc1c(CCCc2ccc(C(=O)O)cc2)c2cc(Cl)ccc2n1C(c1ccccc1)c1ccccc1
Asked: Select one. Lower bioavailability: P or Q Please identify the chosen entry by its label.
Given back: P

----------
assay: Inhibition of cPLA2-alpha in Sprague-Dawley rat whole blood assay in presence of A23187; format: tissue-based
pIC50: −log10 of the molar value.
property.measured: pIC50

# example entries with known answers
[
  {
    "smiles.structure": "Cc1ccccc1S(=O)(=O)NCCc1c(CCCc2ccc(C(=O)O)cc2)c2cc(Cl)ccc2n1C(c1ccccc1)c1ccccc1",
    "pIC50": 7.02
  },
  {
    "smiles.structure": "O=C(O)c1ccc(OCCc2c(CCNS(=O)(=O)Cc3ccccc3)n(C(c3ccccc3)c3ccccc3)c3ccc(Cl)cc23)cc1",
    "pIC50": 6.92
  },
  {
    "smiles.structure": "O=C(O)c1ccc(CCCc2c(CCNS(=O)(=O)c3ccccc3Cl)n(C(c3ccccc3)c3ccccc3)c3ccc(Cl)cc23)cc1",
    "pIC50": 6.70
  }
]

[P] COc1ccccc1S(=O)(=O)NCCc1c(CCCc2ccc(C(=O)O)cc2)c2cc(Cl)ccc2n1C(c1ccccc1)c1ccccc1
[Q] O=C(O)c1ccc(OCCc2c(CCNS(=O)(=O)c3ccccc3OC(F)(F)F)n(C(c3ccccc3)c3ccccc3)c3ccc(Cl)cc23)cc1
[R] COc1ccccc1S(=O)(=O)NCCc1c(CCOc2ccc(C(=O)O)cc2)c2cc(Cl)ccc2n1C(c1ccccc1)c1ccccc1
[S] O=C(O)c1ccc(OCCc2c(CCNS(=O)(=O)c3ccccc3)n(C(c3ccccc3)c3ccccc3)c3ccc(Cl)cc23)cc1
Asked: Reorder the items by pIC50, least to greatest. # list labels per requested ordering
Given back: S, Q, P, R

----------
tested on: Blood; assay: Inhibition of LTB4 production in human whole blood assay; type: functional, tissue-based
property.measured: pIC50
Please report pIC50 as the negative decimal logarithm of the molar concentration, giving only the number.

pIC50 for O=C(O)c1ccc(CCCc2c(CCNS(=O)(=O)c3c(F)cccc3C(F)(F)F)n(C(c3ccccc3)c3ccccc3)c3ccc(Cl)cc23)cc1 is 7.09

----------
assay: Oral bioavailability in Beagle dog at 5 mg/kg administered through MC/TW formulation; format: ADME, organism-based, Canis lupus familiaris; conditions: in vivo
property.measured: bioavailability (%)
Give a bare numeral; the unit % is implied.

Short answer for O=C(O)c1ccc(CCCc2c(CCNS(=O)(=O)c3c(F)cccc3C(F)(F)F)n(C(c3ccccc3)c3ccccc3)c3ccc(Cl)cc23)cc1 : bioavailability was 16

----------
assay: Oral bioavailability in Sprague-Dawley rat at 10 mg/kg administered through Phosal formulation; assay type: ADME, organism-based; conditions: in vivo
property.measured: bioavailability (%)
Give the quantity in %, number only.

Value of measured bioavailability for the entry O=C(O)c1ccc(CCCc2c(CCNS(=O)(=O)Cc3ccccc3)n(C(c3ccccc3)c3ccccc3)c3ccc(Cl)cc23)cc1 : 7.2

----------
assay: Inhibition of cPLA2-alpha in Sprague-Dawley rat whole blood assay in presence of A23187; type: tissue-based
pIC50: −log10 of the molar value.
property.measured: pIC50

[I] O=C(O)c1ccc(CCCc2c(CCNS(=O)(=O)Cc3ccc(Cl)c(Cl)c3)n(C(c3ccccc3)c3ccccc3)c3ccc(Cl)cc23)cc1 [EFIPLADIB]
[II] O=C(O)c1ccc(CCCc2c(CCNS(=O)(=O)c3ccccc3Br)n(C(c3ccccc3)c3ccccc3)c3ccc(Cl)cc23)cc1
Asked: Would you mind telling me which has the lower recorded pIC50 between I and II ? Please reply using the label of the selected record.
Given back: II

----------
assay: Inhibition of cPLA2-alpha in Sprague-Dawley rat whole blood assay in presence of A23187; type: tissue-based
property.measured: IC50 (nM)

[
  {
    "smiles.structure": "O=C(O)c1ccc(CCCc2c(CCNS(=O)(=O)c3c(F)cccc3C(F)(F)F)n(C(c3ccccc3)c3ccccc3)c3ccc(Cl)cc23)cc1",
    "IC50 / nM": 100
  }
]

[P] O=C(O)c1ccc(CCCc2c(CCNS(=O)(=O)c3cccc(-c4ccccc4)c3)n(C(c3ccccc3)c3ccccc3)c3ccc(Cl)cc23)cc1
[Q] O=C(O)c1ccc(OCCc2c(CCNS(=O)(=O)c3ccccc3Br)n(C(c3ccccc3)c3ccccc3)c3ccc(Cl)cc23)cc1
Asked: Which of the two gives a bigger number for IC50: P or Q ? Write down the label of the entry you select.
Given back: Q

[a] Cc1ccccc1S(=O)(=O)NCCc1c(CCOc2ccc(C(=O)O)cc2)c2cc(Cl)ccc2n1C(c1ccccc1)c1ccccc1
[b] O=C(O)c1ccc(OCCc2c(CCNS(=O)(=O)c3ccccc3Cl)n(C(c3ccccc3)c3ccccc3)c3ccc(Cl)cc23)cc1
Asked: Name the one with the greater IC50 value, either a or b as given. Pick one; state its label.
Given back: b

----------
assay: Clearance in Sprague-Dawley rat at 2 mg/kg, iv; assay type: ADME, organism-based; design: dose 2 mg/kg, route intravenous; conditions: in vivo
property.measured: clearance (mL/min/kg)

Here is how some molecules turned out for clearance.
[
  {
    "smiles.structure": "O=C(O)c1ccc(CCCc2c(CCNS(=O)(=O)c3c(F)cccc3C(F)(F)F)n(C(c3ccccc3)c3ccccc3)c3ccc(Cl)cc23)cc1",
    "clearance / mL/min/kg": 14
  },
  {
    "smiles.structure": "Cc1cccc(C)c1CS(=O)(=O)NCCc1c(CCCc2ccc(C(=O)O)cc2)c2cc(Cl)ccc2n1C(c1ccccc1)c1ccccc1",
    "clearance / mL/min/kg": 4
  },
  {
    "smiles.structure": "O=C(O)c1ccc(OCCc2c(CCNS(=O)(=O)c3c(F)cccc3C(F)(F)F)n(C(c3ccccc3)c3ccccc3)c3ccc(Cl)cc23)cc1",
    "clearance / mL/min/kg": 15.3
  },
  {
    "smiles.structure": "Cc1cccc(C)c1S(=O)(=O)NCCc1c(CCCc2ccc(C(=O)O)cc2)c2cc(Cl)ccc2n1C(c1ccccc1)c1ccccc1",
    "clearance / mL/min/kg": 10.5
  }
]

[A] COc1ccccc1S(=O)(=O)NCCc1c(CCCc2ccc(C(=O)O)cc2)c2cc(Cl)ccc2n1C(c1ccccc1)c1ccccc1
[B] O=C(O)c1ccc(OCCc2c(CCNS(=O)(=O)c3ccccc3F)n(C(c3ccccc3)c3ccccc3)c3ccc(Cl)cc23)cc1
[C] Cc1cccc(C)c1S(=O)(=O)NCCc1c(CCOc2ccc(C(=O)O)cc2)c2cc(Cl)ccc2n1C(c1ccccc1)c1ccccc1
Asked: List items by clearance in falling order. To answer, write out the labels according to the requested order.
Given back: B, A, C

----------
assay: Oral bioavailability in Beagle dog at 50 mg/kg administered through Phosal formulation; type: ADME, organism-based, Canis lupus familiaris; details: in vivo
property.measured: bioavailability (%)
Please respond with the number in % and leave the unit unwritten.

The compound listed as Cc1cccc(C)c1CS(=O)(=O)NCCc1c(CCCc2ccc(C(=O)O)cc2)c2cc(Cl)ccc2n1C(c1ccccc1)c1ccccc1 has a reported bioavailability of 1.5

----------
experiment: Clearance in Beagle dog at 2 mg/kg, iv; assay type: ADME, organism-based, Canis lupus familiaris; set-up: dose 2 mg/kg, route intravenous; details: in vivo
property.measured: clearance (mL/min/kg)

[a] O=C(O)c1ccc(CCCc2c(CCNS(=O)(=O)c3c(F)cccc3C(F)(F)F)n(C(c3ccccc3)c3ccccc3)c3ccc(Cl)cc23)cc1
[b] Cc1cccc(C)c1CS(=O)(=O)NCCc1c(CCCc2ccc(C(=O)O)cc2)c2cc(Cl)ccc2n1C(c1ccccc1)c1ccccc1
Asked: Could you please tell me which of these two has the higher clearance: a or b ? // return label of chosen record
Given back: a
(a: 1.4 mL/min/kg, b: 0.6 mL/min/kg)

----------
experiment: Clearance in Sprague-Dawley rat at 2 mg/kg, iv; type: ADME, organism-based; set-up: dose 2 mg/kg, route intravenous; conditions: in vivo
property.measured: clearance (L/h/kg)

[1] O=C(O)c1ccc(CCCc2c(CCNS(=O)(=O)c3ccccc3OC(F)(F)F)n(C(c3ccccc3)c3ccccc3)c3ccc(Cl)cc23)cc1
[2] O=C(O)c1ccc(OCCc2c(CCNS(=O)(=O)c3ccccc3Br)n(C(c3ccccc3)c3ccccc3)c3ccc(Cl)cc23)cc1
Asked: Exercise: compare 1 and 2 ; which one has the greater clearance? Kindly state the label of the option you pick.
Given back: 1

Cited source: ChEMBL document CHEMBL1141604
